- System Tested: UniProt:P22303
- Sequence (P22303 whole entry): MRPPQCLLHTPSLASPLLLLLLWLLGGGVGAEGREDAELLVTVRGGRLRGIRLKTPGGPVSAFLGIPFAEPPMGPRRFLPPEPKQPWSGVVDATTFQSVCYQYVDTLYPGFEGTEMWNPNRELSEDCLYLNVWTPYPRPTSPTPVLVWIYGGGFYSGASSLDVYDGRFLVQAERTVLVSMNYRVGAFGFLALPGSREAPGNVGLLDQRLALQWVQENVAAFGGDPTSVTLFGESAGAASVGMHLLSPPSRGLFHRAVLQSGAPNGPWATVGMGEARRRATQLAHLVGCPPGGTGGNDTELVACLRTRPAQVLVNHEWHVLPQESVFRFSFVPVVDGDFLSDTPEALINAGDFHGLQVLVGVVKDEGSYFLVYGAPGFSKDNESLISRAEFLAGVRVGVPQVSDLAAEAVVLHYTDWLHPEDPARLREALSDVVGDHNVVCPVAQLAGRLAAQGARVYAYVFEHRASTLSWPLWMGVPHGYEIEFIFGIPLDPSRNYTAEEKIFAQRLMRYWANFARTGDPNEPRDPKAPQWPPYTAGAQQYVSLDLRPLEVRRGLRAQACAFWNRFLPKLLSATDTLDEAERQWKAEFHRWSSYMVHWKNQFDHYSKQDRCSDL
log10(IC50) overview
Measurement Label: log10(IC50) (log10 of the value in µM)

Compound | System Tested | log10(IC50)
COc1ccccc1C1c2ccc3ccccc3c2Oc2nc3c(c(N)c21)CCCC3 (racemic) | UniProt:P22303 | 0.66
Nc1c2c(nc3c1C(c1c(Cl)cccc1Cl)c1ccc4ccccc4c1O3)CCCC2 (racemic) | UniProt:P22303 | 0.60
COc1ccc(C2c3ccc4ccccc4c3Oc3nc4c(c(N)c32)CCCC4)c(OC)c1 (racemic) | UniProt:P22303 | -0.43
Nc1c2c(nc3c1C(c1ccc(O)cc1)c1ccc4ccccc4c1O3)CCCC2 (racemic) | UniProt:P22303 | 0.89
COc1cc(C2c3ccc4ccccc4c3Oc3nc4c(c(N)c32)CCCC4)ccc1O (racemic) | UniProt:P22303 | -0.48
COc1cc(C2c3ccc4ccccc4c3Oc3nc4c(c(N)c32)CCCC4)cc(OC)c1OC (racemic) | UniProt:P22303 | 0.55
Nc1c2c(nc3c1C(c1ccc([N+](=O)[O-])cc1)c1ccc4ccccc4c1O3)CCCC2 (racemic) | UniProt:P22303 | 0.76
Cc1ccc(C2c3ccc4ccccc4c3Oc3nc4c(c(N)c32)CCCC4)cc1 (racemic) | UniProt:P22303 | -0.40
Nc1c2c(nc3c1C(c1ccccc1)c1ccc4ccccc4c1O3)CCCC2 (racemic) | UniProt:P22303 | -0.52
Nc1c2c(nc3c1C(c1ccc(Cl)c(Cl)c1)c1ccc4ccccc4c1O3)CCCC2 (racemic) | UniProt:P22303 | 0.71

* * *

- Test Summary: in vitro
- Stated Conditions: human, HepG2 cells
- Description: Cytotoxicity against human HepG2 cells assessed as cell viability at 100 uM after 24 hrs by MTT assay relative to control
Measurement Label: viability at 24 h, 100 µM (%)

Compound | Measurement Label | Assay Result
COc1ccc(C2c3ccc4ccccc4c3Oc3nc4c(c(N)c32)CCCC4)c(OC)c1 (racemic) | viability at 24 h, 100 µM | 78.9
Nc1c2c(nc3c1C(c1ccc([N+](=O)[O-])cc1)c1ccc4ccccc4c1O3)CCCC2 (racemic) | viability at 24 h, 100 µM | 85
Nc1c2c(nc3c1C(c1ccc(Cl)c(Cl)c1)c1ccc4ccccc4c1O3)CCCC2 (racemic) | viability at 24 h, 100 µM | 63.4
COc1cc(C2c3ccc4ccccc4c3Oc3nc4c(c(N)c32)CCCC4)cc(OC)c1OC (racemic) | viability at 24 h, 100 µM | 94.5

* * *

Papp overview
- Test Summary: Permeability of the compound by PAMPA
- Type: ADME
- Stated Conditions: read-out: permeability

Compound | Units | Papp
Nc1c2c(nc3c1C(c1ccc(Cl)c(Cl)c1)c1ccc4ccccc4c1O3)CCCC2 (racemic) | ×10⁻⁶ cm/s | 12.3
Nc1c2c(nc3c1C(c1ccc([N+](=O)[O-])cc1)c1ccc4ccccc4c1O3)CCCC2 (racemic) | ×10⁻⁶ cm/s | 16.1
COc1cc(C2c3ccc4ccccc4c3Oc3nc4c(c(N)c32)CCCC4)cc(OC)c1OC (racemic) | ×10⁻⁶ cm/s | 23.4
COc1ccc(C2c3ccc4ccccc4c3Oc3nc4c(c(N)c32)CCCC4)c(OC)c1 (racemic) | ×10⁻⁶ cm/s | 14.6

* * *

- Test Summary: cells
- Stated Conditions: Rattus norvegicus, Wistar, Cerebral cortex neuron, 24 h
- Description: Neuroprotective activity in 20 uM rotenone and 10 uM oligomycin-treated Wistar rat primary cortical neurons assessed as increase in cell viability after 24 hrs by XTT assay
pEC50: −log10 of the molar value.
pEC50 overview
Measurement Label: pEC50

Compound | Assay Result
Nc1c2c(nc3c1C(c1ccc(Cl)c(Cl)c1)c1ccc4ccccc4c1O3)CCCC2 (racemic) | 5.48
COc1cc(C2c3ccc4ccccc4c3Oc3nc4c(c(N)c32)CCCC4)cc(OC)c1OC (racemic) | 5.36
COc1ccc(C2c3ccc4ccccc4c3Oc3nc4c(c(N)c32)CCCC4)c(OC)c1 (racemic) | 4.96
Nc1c2c(nc3c1C(c1ccc([N+](=O)[O-])cc1)c1ccc4ccccc4c1O3)CCCC2 (racemic) | 5.63

These entries and their values trace back to ChEMBL document CHEMBL2203041.
